Answer each item with its documented melting point.

// query melting point value for entry COCCc1nc2c(N)nc3ccccc3c2n1CCCCNC(=O)c1ccc(-n2cccc2)cc1
173 to 174.9 °C

And CCCCc1nc2c(N)nc3ccccc3c2n1CCNC(=O)CCCCC1SCC2NC(=N)NC21 (stereo not shown) ?
95 to 96 °C

And COc1ccc(C(=O)NCCCCn2cnc3c(N)nc4ccccc4c32)c(OC)n1 ?
175 to 177 °C

And Nc1nc2ccccc2c2c1nc(CCCOc1ccccc1)n2CCCNC(=O)c1ccccc1 ?
192 to 194 °C

And Nc1nc2ccccc2c2c1ncn2CCCCNC(=O)c1ccccc1 ?
210 to 212 °C

And Nc1nc2ccccc2c2c1ncn2CCCCNC(=O)CCc1ccccc1 ?
148 to 150 °C

And Nc1nc2ccccc2c2c1ncn2CCCCNC(=O)c1cn(Cc2ccccc2)c2ccccc12 ?
139 °C (dec.)

And Nc1nc2ccccc2c2c1nc(-c1ccccc1)n2CCCCNC(=O)c1cccnc1 ?
84.5 to 86.1 °C

And CCCC(=O)NCCCCn1c(CC)nc2c(N)nc3ccccc3c21 ?
147.7 to 148.8 °C

And Nc1nc2ccccc2c2c1ncn2CCCCNC(=O)CCCCC1SCC2NC(=O)NC21 (stereo not shown) ?
104 to 106 °C

And Nc1nc2ccccc2c2c1ncn2CCNC(=O)c1ccccc1 ?
295 °C

And COc1ccc(Cc2nc3c(N)nc4ccccc4c3n2CCCCNC(=O)c2ccc3ccccc3n2)cc1 ?
95.1 to 97.4 °C

And Cc1nc2c(N)nc3ccccc3c2n1CCCCCNC(=O)c1ccccc1 ?
110 to 120 °C

And CC(C)Cc1ccc(C(C)C(=O)NCCCCn2cnc3c(N)nc4ccccc4c32)cc1 (stereo not shown) ?
172 to 173 °C

And Nc1nc2ccccc2c2c1ncn2CCCCNC(=O)c1ccc(CCl)cc1 ?
240 to 300 °C (dec.)

And Nc1nc2ccccc2c2c1ncn2CCCCNC(=O)c1cccnc1 ?
188.6 to 189.5 °C

And COCCc1nc2c(N)nc3ccccc3c2n1CCCCNC(=O)c1cncc(C#Cc2ccccc2)c1 ?
76 to 78 °C

And COCCc1nc2c(N)nc3ccccc3c2n1CCCCNC(=O)c1cc(-c2ccccc2)nc2ccccc12 ?
118 °C (dec.)

And CCCCc1nc2c(N)nc3ccccc3c2n1CCCNC(=O)c1ccccc1 ?
189.4 to 190 °C
